Biological target: human AspH (His6-AspH315–758) (Homo sapiens)
Construct: N-Terminally His6-tagged human AspH315–758 (His6-AspH315–758) was produced in Escherichia coli BL21 (DE3) cells; made in house; host or cells: Escherichia coli BL21 (DE3), pET-28a(+) vector
Test: SPE-MS AspH inhibition assay (hFX-CP101-119 substrate hydroxylation)
Format: biochemical
Settings: AspH-inhibitor screening, Plate 1-duplicate
ASSAY_ENDPOINT: Plate 1-duplicate (% inhibition) (%)
Numbers only here, please. The scale is %.

**Query** Consider the compound Cl.NC(=O)c1cccc2cn(-c3ccc([C@@H]4CCCNC4)cc3)nc12 [MK-4827, HCl salt] . State its measured Plate 1-duplicate (% inhibition).
**Result** 9.73

**Query** Consider the compound Oc1ncnc2[nH]ncc12 [Allopurinol] . State its measured Plate 1-duplicate (% inhibition).
**Result** 4.67

**Query** Consider the compound CN(C)C(=N)NC(=N)N.Cl [Metformin hydrochloride aq] . State its measured Plate 1-duplicate (% inhibition).
**Result** 7.45

**Query** Consider the compound Cc1ccc(Nc2nccc(N(C)c3ccc4c(C)n(C)nc4c3)n2)cc1S(N)(=O)=O.Cl [Pazopanib hydrochloride] . State its measured Plate 1-duplicate (% inhibition).
**Result** -28.79

----------
For each entry below, report its Plate 1 (% conversion) value.
Molecular target: human AspH (His6-AspH315–758) (Homo sapiens, UniProt Q12797)
Construct: N-Terminally His6-tagged human AspH315–758 (His6-AspH315–758) was produced in Escherichia coli BL21 (DE3) cells; made in house; host or cells: Escherichia coli BL21 (DE3), pET-28a(+) vector
Sequence (Q12797 315-758): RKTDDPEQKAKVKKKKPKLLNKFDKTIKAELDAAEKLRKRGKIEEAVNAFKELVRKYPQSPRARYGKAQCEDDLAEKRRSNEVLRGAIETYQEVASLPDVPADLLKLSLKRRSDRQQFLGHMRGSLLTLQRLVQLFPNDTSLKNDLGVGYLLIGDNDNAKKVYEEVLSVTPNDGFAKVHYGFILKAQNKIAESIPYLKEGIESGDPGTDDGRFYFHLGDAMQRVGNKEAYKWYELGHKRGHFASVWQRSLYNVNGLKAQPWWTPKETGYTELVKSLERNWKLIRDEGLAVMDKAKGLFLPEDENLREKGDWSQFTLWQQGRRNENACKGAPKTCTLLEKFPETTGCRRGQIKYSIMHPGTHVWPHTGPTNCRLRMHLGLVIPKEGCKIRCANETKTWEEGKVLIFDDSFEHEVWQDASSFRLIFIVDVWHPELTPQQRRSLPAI
Experiment: SPE-MS AspH inhibition assay (hFX-CP101-119 substrate hydroxylation)
Assay type: biochemical
Details: AspH-inhibitor screening, 384-well Plate 1, substrate conversion
Counter-ions that a name gives are not always drawn.

**Query** Consider the compound CC1(C)CNc2cc(NC(=O)c3cccnc3NCc3ccncc3)ccc21.O=P(O)(O)O.O=P(O)(O)O [Motesanib Diphosphate (AMG-706)] . State its measured Plate 1 (% conversion).
**Result** 33.43%

**Query** Consider the compound CCC1=C[C@@H]2CN(C1)Cc1c([nH]c3ccccc13)[C@@](C(=O)OC)(c1cc3c(cc1OC)N(C)[C@H]1[C@@](O)(C(=O)OC)[C@H](OC(C)=O)[C@]4(CC)C=CCN5CC[C@]31[C@@H]54)C2 [Vinorelbine tartrate] . State its measured Plate 1 (% conversion).
**Result** 33.32%

**Query** Consider the compound C=C1C[C@@H]2[C@H](CC[C@]3(C)C(=O)CC[C@@H]23)[C@@]2(C)C=CC(=O)C=C12 [Exemestane] . State its measured Plate 1 (% conversion).
**Result** 51.05%

----------
Molecular target: human AspH (His6-AspH315–758) (Homo sapiens, UniProt Q12797)
Construct: N-Terminally His6-tagged human AspH315–758 (His6-AspH315–758) was produced in Escherichia coli BL21 (DE3) cells; made in house; host or cells: Escherichia coli BL21 (DE3), pET-28a(+) vector
Assay: SPE-MS AspH inhibition assay (hFX-CP101-119 substrate hydroxylation)
Format: biochemical
Details: AspH-inhibitor screening, 384-well Plate 1, substrate conversion
ASSAY_ENDPOINT: Plate 1 (% conversion)

**Query** Consider the molecule `Cc1ccc(C(=O)N(CCCN)[C@@H](c2oc3cc(Cl)ccc3c(=O)c2Cc2ccccc2)C(C)C)cc1` . State its measured Plate 1 (% conversion).
**Result** 55.72%

**Query** Consider the molecule CCC1(c2ccc(N)cc2)CCC(=O)NC1=O (stereo not shown) [Aminoglutethimide] . State its measured Plate 1 (% conversion).
**Result** 44.57%

**Query** Consider the molecule `CC1(COc2ccc3c(c2)ncn3-c2ccc3cccc(N4CCC(N)CC4)c3n2)COC1` . State its measured Plate 1 (% conversion).
**Result** 50.94%

**Query** Consider the molecule `O=C(/C=C/c1cccc(S(=O)(=O)Nc2ccccc2)c1)NO` . State its measured Plate 1 (% conversion).
**Result** 4.83%

**Query** Consider the molecule `CCS(=O)(=O)c1cccc(-c2cc(C(=O)NC3CCN(C)CC3)c(C)c3[nH]c4ncc(C)cc4c23)c1` . State its measured Plate 1 (% conversion).
**Result** 57.02%

**Query** Consider the molecule `O=C(O)CCCc1ccc(N(CCCl)CCCl)cc1` . State its measured Plate 1 (% conversion).
**Result** 48.43%

**Query** Consider the molecule CC/C(=C(\c1ccc(O)cc1)c1ccc(OCCN(C)C)cc1)c1ccccc1 [4-hydroxytamoxifen] . State its measured Plate 1 (% conversion).
**Result** 70.98%

**Query** Consider the molecule `CC(C)NC[C@@H](C(=O)N1CCN(c2ncnc3c2[C@H](C)C[C@H]3O)CC1)c1ccc(Cl)cc1` . State its measured Plate 1 (% conversion).
**Result** 50.35%

**Query** Consider the molecule `CC1=C(/C=C/C(C)=C/C=C/C(C)=C/C(=O)O)C(C)(C)CCC1` . State its measured Plate 1 (% conversion).
**Result** 16.88%

**Query** Consider the molecule `N#Cc1ccc(COC[C@H]2O[C@@H](n3c(NCc4ccc(Cl)c(Cl)c4)nc4c(N)ncnc43)[C@H](O)[C@@H]2O)cc1` . State its measured Plate 1 (% conversion).
**Result** 45.05%
